- Test system: HL-60
- assay.notes: Cytotoxicity in human HL60 cells overexpressing Bcl-2 after 48 hrs by MTT assay
- Type: functional, cell-based
- condition.context: HL-60, 48 h
pIC50: −log10 of the molar value.
Collected pIC50 values appear next to each entry.
metric.name: pIC50

> print(dat)
                                   compound  tested.system  metric.name  comparison.symbol  endpoint.result
1  CCC(C)c1ccc(Oc2ccc3c4c(cccc24)C2=NC(=O)C(C#N)=C23)cc1 (stereo not drawn)          HL-60        pIC50                  =             7.40
2  COc1ccc(Oc2ccc3c4c(cccc24)C2=NC(=O)C(C#N)=C23)cc1          HL-60        pIC50                  =             5.72
3  COc1cccc(Oc2ccc3c4c(cccc24)C2=NC(=O)C(C#N)=C23)c1          HL-60        pIC50                  <             4.30
